assay: self-splicing fitness, log relative to wild type (ln ratio); higher = more splicing; Tetrahymena group I intron in knt gene, E. coli kanamycin selection, DiMSum; sequences stand for … in CUCUCU…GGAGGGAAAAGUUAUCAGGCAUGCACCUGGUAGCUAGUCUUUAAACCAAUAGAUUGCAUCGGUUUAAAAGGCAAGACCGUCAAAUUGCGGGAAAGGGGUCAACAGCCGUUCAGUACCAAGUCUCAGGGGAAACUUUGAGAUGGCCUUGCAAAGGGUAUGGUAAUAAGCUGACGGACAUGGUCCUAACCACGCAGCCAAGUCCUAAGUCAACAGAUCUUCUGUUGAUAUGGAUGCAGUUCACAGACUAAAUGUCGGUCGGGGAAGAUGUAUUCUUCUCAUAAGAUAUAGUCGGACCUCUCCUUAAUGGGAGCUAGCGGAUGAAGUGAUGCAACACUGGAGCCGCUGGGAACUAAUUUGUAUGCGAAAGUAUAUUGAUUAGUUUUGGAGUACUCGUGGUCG; conditions: 30 °C;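 also: selection with 25 µg/mL kanamycin versus none on LB agar overnight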
Experimental endpoint: self-splicing fitness (ln)

> print(dat)
          sequence.code  reported.value
1  UAACAGCAAUAUUACGUUGG           -1.67
2  CUCGAGCAAUAUUACGAAGG            -2.2
3  UUCGAGCAAUAUUACGCAAA          -0.773
4  UGUAAGCAAUAUUACGACAC           -2.51

Fill in the blank: the reported self-splicing fitness (ln) of GCACAGCAAUAUUACGGGGG is ____.
-1.97

Fill in the blank: the reported self-splicing fitness (ln) of GCUUAGCAAUAUUACGGGAG is ____.
-2.42

Fill in the blank: the reported self-splicing fitness (ln) of AUACAGCAAUAUUACGACUA is ____.
-0.177

Fill in the blank: the reported self-splicing fitness (ln) of UGACAGCAAUAUUACGUAAC is ____.
-4.4

Fill in the blank: the reported self-splicing fitness (ln) of CUCUAGCAAUAUUACGUAGU is ____.
-4.1

Fill in the blank: the reported self-splicing fitness (ln) of UGGCAGCAAUAUUACGAACA is ____.
-0.346

Fill in the blank: the reported self-splicing fitness (ln) of CCCUAGCAAUAUUACGCGAC is ____.
-4.32

Fill in the blank: the reported self-splicing fitness (ln) of CGAUAGCAAUAUUACGGUUG is ____.
-1.9

Fill in the blank: the reported self-splicing fitness (ln) of GCGCAGCAAUAUUACGCGUU is ____.
-2.99

Fill in the blank: the reported self-splicing fitness (ln) of ACAGAGCAAUAUUACGAUUA is ____.
-3.25
